System: panelists (mouth, mucosa)
Method summary: Sensory studies in aqueous solution (trained panel, swilling in the mouth)
Format: in vivo, human
Condition summary: 40 ppm in aqueous solution, 20 mL swilled 60 seconds
Assignment: determine reported time of max cooling for the given compounds.
Give the number; min is assumed, so skip it.

Look up and report time of max cooling, with panelists (mouth, mucosa) as system, for COc1ccccc1[C@H]1C[C@@H]2[C@@H]([C@@H](C)C1)N(C)OC2(C)C (racemic)
10

Look up and report time of max cooling, with panelists (mouth, mucosa) as system, for CC(C)=CC[C@H]1C[C@@H]2[C@@H]([C@@H](C)C1)N(C)OC2(C)C (racemic)
10

Look up and report time of max cooling, with panelists (mouth, mucosa) as system, for C[C@H]1C[C@@](C)(c2ccccc2)C[C@@H]2[C@@H]1N(C)OC2(C)C (racemic)
10

Look up and report time of max cooling, with panelists (mouth, mucosa) as system, for CC(C)N1OC(C)(C)[C@@H]2C[C@H](c3ccccc3)C[C@H](C)[C@H]21 (racemic)
10

Look up and report time of max cooling, with panelists (mouth, mucosa) as system, for CC1CC(C)C2C(C1)C(C)(C)ON2C(C)C (stereo not shown)
5

Look up and report time of max cooling, with panelists (mouth, mucosa) as system, for C[C@H]1C[C@@](C)(c2cccc(C#N)c2)C[C@@H]2[C@@H]1N(C)OC2(C)C (racemic)
5

Look up and report time of max cooling, with panelists (mouth, mucosa) as system, for C[C@H]1C[C@@](C)(c2ccc(F)cc2)C[C@@H]2[C@@H]1N(C)OC2(C)C (racemic)
10

Look up and report time of max cooling, with panelists (mouth, mucosa) as system, for CC(C)=CCC1(C)CC(C)C2C(C1)C(C)(C)ON2C (stereo not shown)
20

Look up and report time of max cooling, with panelists (mouth, mucosa) as system, for CC1=CC[C@H](C2CCC3C(C2)N(C)OC3(C)C)CC1 (stereo partly shown)
10

Look up and report time of max cooling, with panelists (mouth, mucosa) as system, for CCC[C@@H]1CC[C@@H]2[C@@H](C1)C(C)(C)ON2C(C)C (racemic)
10

Cited source: patent US20230002334A1
